Target: Metabotropic glutamate receptor 5 (Homo sapiens) (UniProt P41594)
Sequence (P41594 21-1212 limits assumed): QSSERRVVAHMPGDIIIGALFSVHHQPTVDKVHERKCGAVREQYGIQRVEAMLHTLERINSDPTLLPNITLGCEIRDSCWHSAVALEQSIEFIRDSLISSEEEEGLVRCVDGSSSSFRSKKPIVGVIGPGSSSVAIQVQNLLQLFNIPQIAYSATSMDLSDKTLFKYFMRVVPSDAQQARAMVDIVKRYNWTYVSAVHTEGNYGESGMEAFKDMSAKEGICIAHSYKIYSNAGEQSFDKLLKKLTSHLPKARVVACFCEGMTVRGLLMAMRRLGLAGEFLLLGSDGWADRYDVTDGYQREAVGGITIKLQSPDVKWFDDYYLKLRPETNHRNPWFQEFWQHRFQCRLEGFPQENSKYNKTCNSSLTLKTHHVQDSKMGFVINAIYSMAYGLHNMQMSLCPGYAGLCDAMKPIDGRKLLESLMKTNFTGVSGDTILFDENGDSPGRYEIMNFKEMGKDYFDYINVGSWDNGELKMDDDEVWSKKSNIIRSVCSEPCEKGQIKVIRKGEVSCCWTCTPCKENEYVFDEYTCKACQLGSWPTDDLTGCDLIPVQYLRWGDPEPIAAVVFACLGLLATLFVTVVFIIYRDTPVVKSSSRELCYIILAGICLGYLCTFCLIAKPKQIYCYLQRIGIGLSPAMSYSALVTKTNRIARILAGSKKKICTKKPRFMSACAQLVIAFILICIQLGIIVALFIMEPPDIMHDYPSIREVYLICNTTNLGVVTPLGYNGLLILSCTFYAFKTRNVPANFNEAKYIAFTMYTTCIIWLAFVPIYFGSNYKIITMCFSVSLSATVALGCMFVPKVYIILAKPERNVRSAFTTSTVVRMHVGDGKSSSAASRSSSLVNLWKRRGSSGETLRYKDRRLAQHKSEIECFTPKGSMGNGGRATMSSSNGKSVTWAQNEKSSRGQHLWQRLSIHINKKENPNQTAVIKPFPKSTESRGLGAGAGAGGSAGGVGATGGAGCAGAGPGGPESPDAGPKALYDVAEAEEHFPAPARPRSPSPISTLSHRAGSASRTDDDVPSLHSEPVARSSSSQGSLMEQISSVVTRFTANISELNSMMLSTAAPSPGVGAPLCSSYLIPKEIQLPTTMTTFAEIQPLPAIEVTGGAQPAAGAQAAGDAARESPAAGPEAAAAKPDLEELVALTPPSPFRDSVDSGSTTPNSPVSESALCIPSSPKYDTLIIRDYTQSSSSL
Test: Antagonist activity against human mGluR5 expressed in HEK cells assessed as inhibition of L-glutamate-induced intracellular calcium levels at 10 uM after 18 hrs
Type: functional, cell-based
Conditions: HEK293
EXPERIMENTAL_READOUT: inhibition (%)

1. COc1ccc(-c2cc(-c3ccc4c(c3)CN(C(C)C)C4=O)on2)cc1 15.1
2. Cc1c(-c2ccc(Cl)cc2)noc1-c1ccc2c(c1)N(C(C)C)C2=O 28.7
3. Cc1ccc(-c2cc(-c3ccc4c(c3)CN(C(C)C)C4=O)on2)cc1 15
4. Cc1ccc(-c2cc(-c3ccc4c(c3)CN(C(C)C)C4=O)on2)cn1 34.4
5. CC(C)N1C(=O)c2ccc(-c3cc(-c4ccc(Cl)nc4)no3)cc21 10.1

---

Biological target: Metabotropic glutamate receptor 5 (Homo sapiens)
Experiment: Antagonist activity against human mGluR5 expressed in HEK cells assessed as inhibition of L-glutamate-induced intracellular calcium levels at 1 uM after 18 hrs
Format: functional, cell-based
Details: HEK293
inhibition values, listed per item
EXPERIMENTAL_READOUT: inhibition (%)

1. Cc1ccc(-c2cc(-c3ccc4c(c3)CN(C(C)C)C4=O)on2)cc1 21.8
2. Cc1c(-c2ccc(Cl)nc2)noc1-c1ccc2c(c1)CN(C(C)C)C2=O 22.2
3. Cc1c(-c2ccc(F)cc2)noc1-c1ccc2c(c1)CN(C(C)C)C2=O 8.16
4. COc1ccc(-c2cc(-c3ccc4c(c3)CN(C(C)C)C4=O)on2)cc1 15.4
5. CC(C)N1Cc2cc(-c3cc(-c4ccc(F)cc4F)no3)ccc2C1=O 17.7
6. COc1ccc(-c2cc(-c3ccc4c(c3)N(C(C)C)C4=O)on2)cc1 13.6
7. COc1ccc(-c2cc(-c3ccc4c(c3)CN(C(C)C)C4=O)on2)cn1 5.29

---

Biological target: CYP1A2 (Homo sapiens)
Sequence (P05177 whole entry): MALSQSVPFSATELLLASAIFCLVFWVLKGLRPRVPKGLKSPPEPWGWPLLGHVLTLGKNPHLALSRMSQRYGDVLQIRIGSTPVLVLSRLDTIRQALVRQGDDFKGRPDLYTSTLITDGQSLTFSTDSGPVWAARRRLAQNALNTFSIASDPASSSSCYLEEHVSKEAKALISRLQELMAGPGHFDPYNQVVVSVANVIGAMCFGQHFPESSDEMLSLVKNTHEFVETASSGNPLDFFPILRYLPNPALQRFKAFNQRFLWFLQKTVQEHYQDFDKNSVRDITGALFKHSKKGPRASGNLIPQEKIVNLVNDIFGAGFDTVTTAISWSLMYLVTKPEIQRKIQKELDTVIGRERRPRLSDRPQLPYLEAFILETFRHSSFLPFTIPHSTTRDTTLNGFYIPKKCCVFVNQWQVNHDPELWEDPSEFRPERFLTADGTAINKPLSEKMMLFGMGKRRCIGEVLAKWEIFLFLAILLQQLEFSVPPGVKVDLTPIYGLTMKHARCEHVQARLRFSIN
Test: Inhibition of CYP1A2 (unknown origin) assessed as remaining enzyme activity at 10 uM
Type: ADME
Settings: read-out: Activity
As shown below, each of these molecules has a reported activity at 10 µM value.
EXPERIMENTAL_READOUT: activity at 10 µM (%)

1. CC(C)N1Cc2cc(-c3cc(-c4ccc(Cl)nc4)no3)ccc2C1=O 92.6
2. Cc1c(-c2ccc(F)cc2F)noc1-c1ccc2c(c1)CN(C(C)C)C2=O 89.6
3. COc1ccc(-c2cc(-c3ccc4c(c3)CN(C(C)C)C4=O)on2)cn1 90.7
